Data origin: patent US12187772

EXPERIMENTAL SYSTEM: T1, IL10 receptor (IL10 receptor subunit alpha IL10Ra and beta subunit IL10Rb) on Ramos/STAT3-Luc and … (UniProt Q13651 22-578; Q08334 20-325, limits assumed)
T1 sequence (looked up) 1: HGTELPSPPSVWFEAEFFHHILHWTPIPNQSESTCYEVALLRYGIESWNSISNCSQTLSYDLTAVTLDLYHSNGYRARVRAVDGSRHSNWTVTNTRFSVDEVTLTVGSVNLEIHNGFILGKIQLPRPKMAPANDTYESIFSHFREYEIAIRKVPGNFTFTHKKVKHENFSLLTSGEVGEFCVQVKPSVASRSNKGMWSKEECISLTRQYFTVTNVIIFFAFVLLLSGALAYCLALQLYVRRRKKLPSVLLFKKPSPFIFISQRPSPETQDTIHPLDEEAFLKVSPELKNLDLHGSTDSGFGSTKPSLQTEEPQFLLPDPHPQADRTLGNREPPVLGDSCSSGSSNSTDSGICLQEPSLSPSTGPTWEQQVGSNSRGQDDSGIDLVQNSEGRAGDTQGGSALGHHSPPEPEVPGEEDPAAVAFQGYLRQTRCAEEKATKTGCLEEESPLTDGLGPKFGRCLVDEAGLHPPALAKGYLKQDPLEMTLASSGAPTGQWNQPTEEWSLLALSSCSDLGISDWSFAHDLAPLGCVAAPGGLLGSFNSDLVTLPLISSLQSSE
T1 sequence (looked up) 2: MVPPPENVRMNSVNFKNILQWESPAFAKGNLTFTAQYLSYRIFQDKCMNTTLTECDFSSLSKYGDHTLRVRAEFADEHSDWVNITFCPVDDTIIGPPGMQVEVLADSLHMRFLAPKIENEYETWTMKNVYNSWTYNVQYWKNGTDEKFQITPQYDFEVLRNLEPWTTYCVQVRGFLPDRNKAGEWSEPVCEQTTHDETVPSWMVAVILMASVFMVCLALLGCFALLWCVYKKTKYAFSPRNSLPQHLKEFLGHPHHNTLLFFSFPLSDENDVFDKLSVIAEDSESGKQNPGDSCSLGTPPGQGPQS
TEST NAME: cell-based or functional assay
ENDPOINT LABEL: Fold Induction of luciferase activity, TF-1/Stat3-Luc reporter cells (fold)
Use fold as the unit, but write only the number.

BINDER	MEASURED VALUE
IL10M4 (Fc-2XG4S-hIL10; Fc is IgG4s) (Fc fusion) ESKYGPPCPPCPAPPVAGPSVFLFPPKPKDTLMISRTPEVTCVVVDVSQEDPEVQFNWYVDGVEVHNAKTKPREEQFNSTYRVVSVLTVLHQDWLNGKEYKCKVSNKGLPSSIEKTISKAKGQPREPQVYTLPPSQEEMTKNQVSLTCLVKGFYPSDIAVEWESNGQPENNYKTTPPVLDSDGSFFLYSRLTVDKSRWQEGNVFSCSVMHEALHNHYTQKSLSLSLGKGGGGSGGGGSSPGQGTQSENSCTHFPGNLPNMLRDLRDAFSRVKTFFQMKDQLDNLLLKESLLEDFKGYLGCQALSEMIQFYLEEVMPQAENQDPDIKAHVNSLGENLKTLRLRLRRCHRFLPCENKSKAVEQVKNAFNKLQEKGIYKAMSEFDIFINYIEAYMTMKIRN	3.78

Fold Induction of luciferase activity, TF-1/Stat3-Luc reporter cells in this record for IL10M7 (hIL10-1XG4S-Fc; Fc is IgG4s) (Fc fusion) SPGQGTQSENSCTHFPGNLPNMLRDLRDAFSRVKTFFQMKDQLDNLLLKESLLEDFKGYLGCQALSEMIQFYLEEVMPQAENQDPDIKAHVNSLGENLKTLRLRLRRCHRFLPCENKSKAVEQVKNAFNKLQEKGIYKAMSEFDIFINYIEAYMTMKIRNGGGGSESKYGPPCPPCPAPPVAGPSVFLFPPKPKDTLMISRTPEVTCVVVDVSQEDPEVQFNWYVDGVEVHNAKTKPREEQFNSTYRVVSVLTVLHQDWLNGKEYKCKVSNKGLPSSIEKTISKAKGQPREPQVYTLPPSQEEMTKNQVSLTCLVKGFYPSDIAVEWESNGQPENNYKTTPPVLDSDGSFFLYSRLTVDKSRWQEGNVFSCSVMHEALHNHYTQKSLSLSLGK : 2.36
